Assay: Selectivity index, ratio of CC50 for BHK cells to IC50 for Chikungunya virus LR2006 OPY1
Assay type: toxicity
Settings: hamster, read-out: Ratio CC50/IC50
Let's look at some compounds and their measured selectivity ratio.
Please reply with the value in numeric form only.

[[record]]
compound = "CN1CCC(CN2c3ccccc3Sc3ccccc32)C1 (stereo not given) [METHDILAZINE]"
observed_value = 5.6

[[record]]
compound = "CCSc1ccc2c(c1)N(CCCN1CCN(C)CC1)c1ccccc1S2 [THIETHYLPERAZINE]"
observed_value = 5.5


Exam item: For the compound OCCN1CCN(CCCN2c3ccccc3Sc3ccc(Cl)cc32)CC1 [PERPHENAZINE] , what selectivity ratio is on record?
Marked response: 6.2

Exam item: # input compound: CN(C)CCCN1c2ccccc2Sc2ccc(Cl)cc21 [CHLORPROMAZINE] ; wanted: its selectivity ratio
Marked response: 4.5

Exam item: Fill in: selectivity ratio of CCN(CC)C(C)CN1c2ccccc2Sc2ccccc21 (stereo not given) [ETHOPROPAZINE] is ___
Marked response: 10.4

====

Assay: Cytotoxicity against African green monkey Vero cells assessed as reduction in cell viability after 18 hrs by neutral red staining-based microscopic analysis
Conditions: chlorocebus sabaeus
Assay readout: CC50 at 18 h (µM)
The answer is to be given in µM; state only the numeric part.

Exam item: Sample CCOC(=O)c1c(CSc2ccccc2)n(C)c2cc(Br)c(O)c(CN(C)C)c12 — what was its CC50 at 18 h?
Marked response: 680

====

Assay: Selectivity index, ratio of CC50 for human U2OS cells to EC50 for Chikungunya virus
Format: toxicity
Conditions: read-out: Ratio CC50/EC50
Assay readout: selectivity ratio
A bare number is all that is needed in reply.

Exam item: Returns the measured selectivity ratio for the input compound. Input: CC(=O)Oc1ccccc1C(=O)Nc1ncc([N+](=O)[O-])s1 [NITAZOXANIDE]
Marked response: 8.31

====

# selectivity ratio listing for each entry below
Assay: Selectivity index, ratio of CC50 for human Huh7.5 cells to EC50 for Chikungunya virus
Assay type: toxicity
Settings: read-out: Ratio CC50/EC50
Provide a numeric answer; units are not to be included.

[[record]]
compound = "CC[C@H](C)[C@H]1O[C@]2(CC[C@@H]1C)C[C@@H]1C[C@@H](C/C=C(\\C)[C@@H](O[C@H]3C[C@H](OC)[C@@H](O[C@H]4C[C@H](OC)[C@@H](O)[C@H](C)O4)[C@H](C)O3)[C@@H](C)/C=C/C=C3\\CO[C@]4(O)[C@H](O)C(C)=C[C@@H](C(=O)O1)[C@]34O)O2"
observed_value = 4.1


Exam item: Recorded selectivity ratio for CC1=C(/C=C/C(C)=C/C=C/C(C)=C/C(=O)Nc2ccc(O)cc2)C(C)(C)CCC1 [FENRETINIDE] , please?
Marked response: 29.9

====

Experiment: Selectivity index, ratio of CC50 for African green monkey Vero cells to IC50 for Chikungunya virus LR2006 OPY1
Assay type: toxicity
Details: read-out: Ratio CC50/IC50
Assay readout: selectivity ratio
Lab note: record just the number, no unit beside it.

Exam item: I would be grateful if you could share the reported selectivity ratio for CCOC(=O)c1c(CSc2ccccc2)n(C)c2cc(Br)c(O)c(CN(C)C)c12 .
Marked response: 28

====

In this section we review reported pEC50 values for a set of molecules.
Tested on: Chikungunya virus
Experiment: Antiviral activity against Chikungunya virus 899 infected in African green monkey Vero-A cells assessed as inhibition of viral-induced cytopathic effect measured on day 7 post infection by MTS/PMS assay
Assay type: functional, organism-based
Conditions: Chikungunya virus, 899, 168 h
Give only the number. pEC50 is defined as minus log10 of concentration in molar units.

[[record]]
molecule = "NC(=O)c1nccnc1O"
observed_value = 5.15


Exam item: What value of pEC50 has been recorded for this entry: NC(=O)c1nc(F)cnc1O [FAVIPIRAVIR]
Marked response: 4.60

====

Tested on: Chikungunya virus
Test: Antiviral activity against Chikungunya virus 899 infected in African green monkey Vero A cells assessed as reduction in viral infectious progeny by end-point titration assay
Assay type: functional, organism-based
Settings: Chikungunya virus, 899, Vero
Assay readout: EC50 (µM)
Lab book: enter the figure in µM, no units written.

[[record]]
input_smiles = "CCCCCCCC(=O)O[C@H]1/C(=C/C(=O)OC)C[C@H]2C[C@H](CC(=O)OC)OC(=O)CCOc3ccccc3C(=O)OCC(C)(C)[C@]1(O)O2"
observed_value = 4.5


Exam item: Any idea what EC50 was measured for CCCCCCCC(=O)O[C@H]1/C(=C/C(=O)OC)C[C@H]2C[C@H](CC(=O)OC)OC(=O)CCOc3ccc(-c4c(OC)cccc4OC)cc3C(=O)OCC(C)(C)[C@]1(O)O2 ?
Marked response: 2

Exam item: Could you share which EC50 value was measured for CCCCCCCC(=O)O[C@H]1/C(=C/C(=O)OC)C[C@H]2C[C@H](COC)OC(=O)CCOc3ccccc3C(=O)OCC(C)(C)[C@]1(O)O2 ?
Marked response: 4.1

====

Entries and their EC50 values follow.
Test system: Chikungunya virus
Assay: Antiviral activity against Chikungunya virus 899 infected in African green monkey Vero A cells by real-time qRT-PCR analysis
Format: functional, organism-based
Conditions: Chikungunya virus, 899, Vero
Note: unit µM is implicit; provide only the numeric part.

These solved cases illustrate the format of a correct answer.
[[record]]
input_smiles = "CCCCCCCC(=O)O[C@H]1/C(=C/C(=O)OC)C[C@H]2C[C@H](CC(=O)OC)OC(=O)CCOc3ccc(-c4c(OC)cccc4OC)cc3C(=O)OCC(C)(C)[C@]1(O)O2"
uom = "µM"
observed_value = 2.1

[[record]]
input_smiles = "CCCCCCCC(=O)O[C@H]1/C(=C/C(=O)OC)C[C@H]2C[C@H](CC(=O)OC)OC(=O)CCOc3ccccc3C(=O)OCC(C)(C)[C@]1(O)O2"
uom = "µM"
observed_value = 4.6


# ---- query compound ----
Exam item: // query EC50 value for entry CCCCCCCC(=O)O[C@H]1/C(=C/C(=O)OC)C[C@H]2C[C@H](COC)OC(=O)CCOc3ccccc3C(=O)OCC(C)(C)[C@]1(O)O2
Marked response: 6

====

System: Chikungunya virus
Assay: Antiviral activity against Chikungunya virus SGP011 infected in African green monkey BGM cells after 24 hrs by luciferase reporter gene assay
Assay type: functional, organism-based
Assay readout: EC50
Give me the value, and tack the unit on after it.

Exam item: Query the reported EC50 for Chikungunya virus; item: CC(=O)O[C@@]12C[C@@H](C)[C@@]3(O)[C@@H](C=C(CO)C[C@]4(O)C(=O)C(C)=C[C@@H]34)[C@@H]1C2(C)C
Marked response: 200 nM

====

Tested on: Chikungunya virus
Experiment: Antiviral activity against Chikungunya virus infected in human U2OS cells by RT-qPCR analysis
Type: functional, organism-based
compounds and their reported EC50
Number in µM, nothing else.

[[record]]
compound = "O=C(Nc1ccc([N+](=O)[O-])cc1Cl)c1cc(Cl)ccc1O [NICLOSAMIDE]"
observed_value = 0.36


Exam item: Look up EC50 with Chikungunya virus for this compound: CC(=O)Oc1ccccc1C(=O)Nc1ncc([N+](=O)[O-])s1 [NITAZOXANIDE]
Marked response: 3.01

====

Test: Selectivity index, ratio of CC50 for BHK-21 cells to EC50 for Chikungunya virus 0810bTw
Type: toxicity
Settings: hamster, read-out: Ratio CC50/EC50
Assay readout: selectivity ratio
Give the figure by itself; no unit, no explanation.

Exam item: Sample CC(=O)Oc1ccccc1C(=O)Nc1ncc([N+](=O)[O-])s1 [NITAZOXANIDE] — what was its selectivity ratio?
Marked response: 5.05

====

Experiment: Selectivity index, ratio of CC50 for African green monkey Vero cells to IC50 for Chikungunya virus DRDE-06
Format: toxicity
Details: read-out: Ratio CC50/IC50
Assay readout: selectivity ratio
Reply with the value as a number alone.

Exam item: For COc1c(C)c2c(c(O)c1C/C=C(\C)CCC(=O)O)C(=O)OC2 , what is its reported selectivity ratio?
Marked response: 300

====

System: Chikungunya virus
Assay: Antiviral activity against Chikungunya virus 0611aTw infected in BHK-21 cells by RT-qPCR analysis
Type: functional, organism-based
Examples of compounds with documented pEC50 follow.
Recall that pEC50 is obtained by taking minus log10 of the concentration measured in molar.

[[record]]
compound = "CC(=O)Oc1ccccc1C(=O)Nc1ncc([N+](=O)[O-])s1 [NITAZOXANIDE]"
assay_readout = "pEC50"
observed_value = 5.71


Now examine the next entry.
Exam item: Dear colleague, I am looking for the recorded pEC50 of the following compound: O=C(Nc1ccc([N+](=O)[O-])cc1Cl)c1cc(Cl)ccc1O [NICLOSAMIDE]
Marked response: 6.07

====

Assay: Cytotoxicity against African green monkey Vero cells assessed as reduction in cell viability
Format: cell-based
Conditions: chlorocebus sabaeus
Assay readout: CC50 (µg/mL)
Enter your answer as a number in µg/mL; do not include the unit.

Exam item: // lookup CC50 for CC/C(C)=C/C(=O)O[C@@H]1[C@H](C)C[C@H]2O[C@]1(O)[C@@H](O)[C@H]1CC[C@H](O1)C(C)(C)/C=C/[C@H](C)C2=O
Marked response: 60.9
